target: GAL4 DBD (1-147)-CfEcR(DEF)/VP16AD-βRXREF-LmUSPEF (Choristoneura fumiferana, UniProt O77240); construct: The wild-type D, E, and F domains from spruce budworm Choristoneura fumiferana EcR (“CfEcR-DEF”); experiment: cell-based; details: 48 h, read-out: Fold Induction Average, 27-63 assay
Known fold induction at 33.3 µM of a selection of compounds

COc1cccc(C(=O)NN2C(c3cc(C)cc(C)c3)=NOC23CCc2ccccc2C3)c1C (stereo not drawn) [RG-120037]    0.4
CCc1c(OC)cccc1C(=O)NN1C(c2ccc(OC(F)(F)F)cc2)=NOC1(C)C [RG-120022]    0.3

Now consider a different compound.
The value of fold induction at 33.3 µM measured for the compound CCc1c(OC)cccc1C(=O)NN1C(c2ccc(OC)cc2OC)=NOC1(C)C [RG-120058] turned out to be 0.3
